Recorded values, source the supplement of paper PMC11061612.

Below: a set of entries, each annotated with reported combination Emax.
Tested on: TE-8 (Esophageal Squamous Cell Carcinoma)
assayOverview: combination Emax (second highest fraction inhibited in the dose matrix, 72 h); higher = more inhibition; extreme values may be limits of the assay
// no unit, no text: just the number

Answered cases to consult:
[[record]]
molecule = "COc1cc2ncnc(Nc3ccc(F)c(Cl)c3)c2cc1OCCCN1CCOCC1 [Gefitinib] + CC(C)n1c(=O)n(C)c2cnc3cc(F)c(-c4ccc(OCCCN5CCCCC5)nc4)cc3c21 [AZD1390] (first compound max 10 µM, 7x7, partner max 0.3 µM)"
measuredvalue = 0.225

[[record]]
molecule = "CC(=O)c1c(C)c2cnc(Nc3ccc(N4CCNCC4)cn3)nc2n(C2CCCC2)c1=O [Palbociclib] + Cn1cnc2c(F)c(Nc3ccc(Br)cc3Cl)c(C(=O)NOCCO)cc21 [Selumetinib] (first compound max 10 µM, 7x7, partner max 10 µM)"
measuredvalue = 0.383

[[record]]
molecule = "CN(CCO)CC[C@H](CSc1ccccc1)Nc1ccc(S(=O)(=O)NC(=O)c2ccc(N3CCC([C@@H](O)c4ccccc4-c4ccc(Cl)cc4)CC3)cc2)cc1S(=O)(=O)C(F)(F)F [AZD4320] + C[C@@H](Nc1cc(F)cc(F)c1)c1cc(C(=O)N(C)C)cc2c(=O)cc(N3CCOCC3)oc12 [AZD8186] (first compound max 1 µM, 7x7, partner max 3 µM)"
measuredvalue = 0.463


Give its combination Emax value. Item: NC1(C(=O)N[C@@H](CCO)c2ccc(Cl)cc2)CCN(c2ncnc3[nH]ccc23)CC1 [Capivasertib] + CC(=O)c1c(C)c2cnc(Nc3ccc(N4CCNCC4)cn3)nc2n(C2CCCC2)c1=O [Palbociclib] (first compound max 10 µM, 7x7, partner max 10 µM)
0.48

Given CS(=O)(=O)CCNCc1ccc(-c2ccc3ncnc(Nc4ccc(OCc5cccc(F)c5)c(Cl)c4)c3c2)o1 [Lapatinib] + Cn1cnc2c(F)c(Nc3ccc(Br)cc3Cl)c(C(=O)NOCCO)cc21 [Selumetinib] (first compound max 10 µM, 7x7, partner max 10 µM) , state its recorded combination Emax.
0.521

Which combination Emax value belongs to CC1(C)CCC(CN2CCN(c3ccc(C(=O)NS(=O)(=O)c4ccc(NCC5CCOCC5)c([N+](=O)[O-])c4)c(Oc4cnc5[nH]ccc5c4)c3)CC2)=C(c2ccc(Cl)cc2)C1 [Venetoclax] + C1CN(CCC1(C(=O)N[C@@H](CCO)C2=CC=C(C=C2)Cl)N)C3=NC=NC4=C3C=CN4 [Capivasertib] (first compound max 1 µM, 7x7, partner max 3 µM) ?
0.424

What does the record list as combination Emax for CN(CCO)CC[C@H](CSc1ccccc1)Nc1ccc(S(=O)(=O)NC(=O)c2ccc(N3CCC([C@@H](O)c4ccccc4-c4ccc(Cl)cc4)CC3)cc2)cc1S(=O)(=O)C(F)(F)F [AZD4320] + Cn1cnc2c(F)c(Nc3ccc(Br)cc3Cl)c(C(=O)NOCCO)cc21 [Selumetinib] (first compound max 1 µM, 7x7, partner max 3 µM) ?
0.502

###

Tested on: GP5d (Colorectal Carcinoma);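 note: after 72 h of two-drug dosing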
assayOverview: Bliss excess, mean over the matrix (fraction); higher = more synergy
assayMetric: Bliss excess
Give the figure by itself; no unit, no explanation.

Answered examples (2):
[[record]]
compound = "NC1(C(=O)N[C@@H](CCO)c2ccc(Cl)cc2)CCN(c2ncnc3[nH]ccc23)CC1 [Capivasertib] + COc1nnc2ccc(N3CCC(c4ccc(OCCN5CCN(C)C(=O)[C@H]5C)cc4)CC3)nn12 [AZD5153] (first compound max 10 µM, 7x7, partner max 1 µM)"
measuredvalue = 0.0292

[[record]]
compound = "CC1(C)CCC(CN2CCN(c3ccc(C(=O)NS(=O)(=O)c4ccc(NCC5CCOCC5)c([N+](=O)[O-])c4)c(Oc4cnc5[nH]ccc5c4)c3)CC2)=C(c2ccc(Cl)cc2)C1 [Venetoclax] + CCN(CCO)CCCOc1ccc2c(Nc3cc(CC(=O)Nc4cccc(F)c4)[nH]n3)ncnc2c1 [AZD2811] (first compound max 1 µM, 7x7, partner max 1 µM)"
measuredvalue = -0.0235


Next item in the queue.
Recorded Bliss excess for C=CCn1c(=O)c2cnc(Nc3ccc(N4CCN(C)CC4)cc3)nc2n1-c1cccc(C(C)(C)O)n1 [AZD1775] + C[C@@H]1COCCN1C2=NC(=NC(=C2)C3(CC3)[S@](=N)(=O)C)C4=C5C=CNC5=NC=C4 [AZD6738] (first compound max 1 µM, partner max 10 µM) , please?
0.0418
